# TEST_TARGET: PDE5A1 (Homo sapiens)
# Construct: from tissue; host or cells: human platelets from fresh donor blood (10,000 x g supernatant of sonicated lysate)
# PROCEDURE_SUMMARY: Inhibition of type 5 phosphodiesterase (PDE5) activity, modified SPA test with human platelet lysate
# Type: biochemical
# CONDITION_DETAILS: 0.5 μM cGMP, read-out: PDE5A1 inhibitory values [measured as −log IC50 (mol/l)] (converted)
PROPERTY_LABEL: IC50

[[record]]
compound = "COCC(=O)N[C@H]1CC[C@H](NC(=O)c2c(C)[nH]c3c(-c4cc(C(F)F)ccc4OCC4CC4)ncnc23)[C@H](F)C1 (relative stereo)"
test_target = "PDE5A1 (Homo sapiens)"
result = "< 1 nM"


IC50 reported for this compound CCC(=O)N1CCC(NC(=O)c2c(C)[nH]c3c(-c4cc(F)c(OC)cc4OCC4CC4)ncnc23)CC1 : < 1 nM

IC50 reported for this compound COCC(=O)N1C[C@@H](O)[C@H](NC(=O)c2c(C)[nH]c3c(-c4ccc(F)cc4OCC4CC4)ncnc23)C1 (relative stereo) : 1 to 10 nM

IC50 reported for this compound Cc1ccc(OCC2CC2)c(-c2ncnc3c(C(=O)NC4CCN(C(=O)[C@H](C)O)CC4)c(C)[nH]c23)c1 : < 1 nM
